meta.source: patent US10174037B2

# Subject of test: human PDE2A1 (Homo sapiens (Human))
# Sequence (O00408 other isoform, or with tags, fused parts or gaps): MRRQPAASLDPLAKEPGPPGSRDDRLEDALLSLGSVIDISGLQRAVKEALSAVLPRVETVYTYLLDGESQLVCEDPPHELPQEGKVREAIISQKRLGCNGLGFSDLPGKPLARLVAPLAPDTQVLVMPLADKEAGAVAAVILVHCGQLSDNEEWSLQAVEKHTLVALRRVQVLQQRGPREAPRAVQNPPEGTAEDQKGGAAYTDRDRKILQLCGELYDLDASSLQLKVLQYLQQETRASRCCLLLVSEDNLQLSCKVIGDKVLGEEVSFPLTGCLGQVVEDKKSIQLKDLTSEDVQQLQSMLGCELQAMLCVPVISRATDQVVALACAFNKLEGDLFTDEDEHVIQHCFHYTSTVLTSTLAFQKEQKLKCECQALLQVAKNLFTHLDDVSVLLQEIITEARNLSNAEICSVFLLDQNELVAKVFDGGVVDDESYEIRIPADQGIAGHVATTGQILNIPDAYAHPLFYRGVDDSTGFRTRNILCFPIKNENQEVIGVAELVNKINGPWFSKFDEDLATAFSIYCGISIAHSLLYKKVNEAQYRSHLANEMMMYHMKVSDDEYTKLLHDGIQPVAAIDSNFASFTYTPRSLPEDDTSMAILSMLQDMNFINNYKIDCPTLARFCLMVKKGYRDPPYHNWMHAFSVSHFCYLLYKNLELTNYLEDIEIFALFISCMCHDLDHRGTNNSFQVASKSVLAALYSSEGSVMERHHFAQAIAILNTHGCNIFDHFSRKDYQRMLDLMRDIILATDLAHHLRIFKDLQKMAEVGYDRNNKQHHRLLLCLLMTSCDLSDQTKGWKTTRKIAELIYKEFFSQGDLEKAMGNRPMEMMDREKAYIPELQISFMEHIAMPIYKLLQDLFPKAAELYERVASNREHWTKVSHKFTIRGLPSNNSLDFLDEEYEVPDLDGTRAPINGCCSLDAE
# Run description: PDE selectivity IMAP FP assay, human PDE2A1
# Assay type: biochemical
# Recorded conditions: Human PDE2; Lab B; read-out: Human PDE2 Ki (nM) Lab B
Measured property: Ki (nM)
State the answer as a number, implicitly in nM.

Reported Ki of `O=c1[nH]c(O)nc2c1c(CO)nn2C1(c2ccc(C(F)(F)F)cc2)CCC1` : 39

Reported Ki of CCC(c1ccc(OC(F)F)cc1)n1nc(CO)c2c(=O)[nH]c(N(C)C)nc21 (single isomer, unassigned) [Example 125] : 2.4

Reported Ki of CC(c1ccc(C(F)(F)F)cc1)n1nc(C(F)(F)F)c2c(=O)[nH]c(O)nc21 (single isomer, unassigned) [Example 254] : 121

Reported Ki of `C[C@@H](c1ccc(C(F)(F)F)cc1)n1nc(CF)c2c(=O)[nH]c(N3CCC3)nc21` : 0.41

###

# Subject of test: Rhesus PDE2A3 (Macaca mulatta, UniProt B3VTJ2)
# Sequence (B3VTJ2 1-941): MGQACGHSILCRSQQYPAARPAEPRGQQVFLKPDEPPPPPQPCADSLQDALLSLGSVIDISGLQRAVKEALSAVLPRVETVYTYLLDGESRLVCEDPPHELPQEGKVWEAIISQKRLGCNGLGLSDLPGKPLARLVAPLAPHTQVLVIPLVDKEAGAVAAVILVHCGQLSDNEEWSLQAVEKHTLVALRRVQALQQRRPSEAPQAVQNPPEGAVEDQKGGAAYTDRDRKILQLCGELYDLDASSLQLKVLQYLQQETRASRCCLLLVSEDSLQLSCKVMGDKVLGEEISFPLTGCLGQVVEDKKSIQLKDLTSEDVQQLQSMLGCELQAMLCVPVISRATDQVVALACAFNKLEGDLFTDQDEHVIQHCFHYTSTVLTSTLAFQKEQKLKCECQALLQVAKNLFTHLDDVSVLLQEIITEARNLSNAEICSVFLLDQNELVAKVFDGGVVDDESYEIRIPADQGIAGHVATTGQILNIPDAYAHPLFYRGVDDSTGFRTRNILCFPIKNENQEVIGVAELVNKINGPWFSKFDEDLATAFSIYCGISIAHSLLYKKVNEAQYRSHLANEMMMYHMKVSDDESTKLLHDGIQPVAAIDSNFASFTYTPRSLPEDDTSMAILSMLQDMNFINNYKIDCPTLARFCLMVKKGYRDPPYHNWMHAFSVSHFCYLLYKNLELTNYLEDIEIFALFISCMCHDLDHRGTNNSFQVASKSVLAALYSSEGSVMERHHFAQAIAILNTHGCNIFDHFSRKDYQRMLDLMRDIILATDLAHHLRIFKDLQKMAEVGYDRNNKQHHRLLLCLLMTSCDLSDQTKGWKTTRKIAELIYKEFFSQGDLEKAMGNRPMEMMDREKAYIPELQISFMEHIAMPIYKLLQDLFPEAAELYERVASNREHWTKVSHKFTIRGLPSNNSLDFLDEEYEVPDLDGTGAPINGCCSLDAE
# Run description: PDE2 fluorescence polarization (IMAP FP) assay, rhesus PDE2A3
# Format: biochemical, rhesus macaque
# Recorded conditions: Lab B, read-out: Rhesus PDE2 Ki (nM) Lab B
Lab note: compare Ki with 0.4 nM, writing true if less and false if equal or more.

**Q:** Please indicate whether the reported Ki of CC(C)C(c1ccc(C(C)(F)F)c(F)c1)n1nc(CO)c2c(=O)[nH]c(N(C)C)nc21 (single isomer, unassigned) [Example 117] is strictly below 0.4 nM.
**A:** true

**Q:** Please indicate whether the reported Ki of CC(C)C(c1ccc(C(C)(F)F)cc1)n1nc(CO)c2c(=O)[nH]c(N(C)C)nc21 (single isomer, unassigned) [Example 139] is strictly below 0.4 nM.
**A:** true

**Q:** Please indicate whether the reported Ki of CC(C)(C)c1ccc(C(C2CC2)n2nc(CC(F)(F)F)c3c(=O)[nH]c(O)nc32)cc1 (single isomer, unassigned) [Example 251] is strictly below 0.4 nM.
**A:** false

**Q:** Please indicate whether the reported Ki of CN(C)c1nc2c(c(CO)nn2C(c2ccc(CC(F)(F)F)c(F)c2)C2CC2)c(=O)[nH]1 (single isomer, unassigned) [Example 94] is strictly below 0.4 nM.
**A:** true

**Q:** Please indicate whether the reported Ki of CC(c1ccc(C(F)(F)F)cc1)n1nc(C(F)(F)F)c2c(=O)[nH]c(O)nc21 (single isomer, unassigned) [Example 254] is strictly below 0.4 nM.
**A:** false

###

# Subject of test: Rhesus PDE2A3 (Macaca mulatta)
# Run description: PDE2 fluorescence polarization (IMAP FP) assay, rhesus PDE2A3
# Format: biochemical, rhesus macaque
# Recorded conditions: Lab B, read-out: Rhesus PDE2 Ki (nM) Lab B
Lab note: compare Ki with 5 nM, writing MET if less and NOT MET if equal or more.

**Q:** Please indicate whether the reported Ki of O=c1[nH]c(O)nc2c1c(CO)nn2C(c1ccc(C(F)(F)F)cc1)C1CC1 (single isomer, unassigned) [Example 14] is strictly below 5 nM.
**A:** NOT MET

**Q:** Please indicate whether the reported Ki of CC(c1ccc(C(F)(F)F)c(F)c1)n1nc(C(F)F)c2c(=O)[nH]c(O)nc21 (single isomer, unassigned) is strictly below 5 nM.
**A:** MET

**Q:** Please indicate whether the reported Ki of Cc1ccc(C(C)n2nc(CCl)c3c(=O)[nH]c(O)nc32)cc1 (stereo not shown) is strictly below 5 nM.
**A:** NOT MET

**Q:** Please indicate whether the reported Ki of `CC(C)[C@@H](c1ccc(C(C)(C)C)cc1)n1nc(CF)c2c(=O)[nH]c(O)nc21` is strictly below 5 nM.
**A:** MET

**Q:** Please indicate whether the reported Ki of CC(c1ccc(OC(F)(F)F)cc1)n1nc(C(F)F)c2c(=O)[nH]c(O)nc21 (single isomer, unassigned) [Example 274] is strictly below 5 nM.
**A:** MET
